Molecular target: Insulin-degrading enzyme (Homo sapiens)
Assay: IDE inhibition in live cells – cell-based, fluorescence polarization, late-stage follow-up (AID 588712)
Conditions: cell-based IDE activity
Activity calls are given as the source filed them. The rule behind the calls is not given here.

Molecule	IC50
COc1ccc(C(=O)N2CCN(C(=O)C3COc4ccccc4O3)CC2)cc1OC (stereo unspecified)	> 54.7 µM (inactive)
CCN(CC)c1ccc(/C=C2\C(=N)N3N=C(CC(=O)N4CCOCC4)SC3=NC2=O)cc1	inactive
O=C(CSc1nnc(-c2cccc(Cl)c2)n1Cc1ccco1)c1ccc2ccccc2c1	> 54.7 µM (inactive)
O=C(Nc1cccc(C(F)(F)F)c1)c1csc(-c2cccc(C(F)(F)F)c2)n1	> 54.7 µM (inactive)
Clc1cccc(-c2nnc(SCc3nc4ccccc4[nH]3)n2Cc2ccco2)c1	3.09 µM
COc1cc(/C=C2\SC(=S)N(NC(C)=O)C2=O)ccc1OC(=O)c1ccco1	inactive
O=C(Nc1ccc2oc(-c3cccnc3)nc2c1)c1ccc2c(c1)OCCO2	> 54.7 µM (inactive)
Cc1ccc(NC(=O)CSc2nnc(-c3cccc(Cl)c3)n2Cc2ccco2)c(C)c1	> 54.7 µM (inactive)
O=C(Nc1cccc(C(F)(F)F)c1)c1csc(Cc2cccc(C(F)(F)F)c2)n1	> 54.7 µM (inactive)
O=C(C1CC1)N1CCN(c2ccnc3cc(Cl)ccc23)CC1	> 54.7 µM (inactive)
Cc1ccc(C)c(N2C(=N)S/C(=C\c3ccc(-c4ccccc4C(=O)O)o3)C2=O)c1	> 54.7 µM (inactive)
Cc1nc(-c2cccnc2)sc1C(=O)Nc1cccc(C(F)(F)F)c1	> 54.7 µM (inactive)
O=C(Nc1cccc(C(F)(F)F)c1)c1csc(-c2ccccc2)n1	> 54.7 µM (inactive)
Nc1c(C(=O)Nc2nccs2)sc2nc(-c3cccs3)cc(C(F)(F)F)c12	> 54.7 µM (inactive)
Clc1cccc(-c2nnc(SCc3nc4ccccc4[nH]3)n2-c2ccccc2)c1	> 54.7 µM (inactive)
CC(Sc1nnc(-c2cccnc2)n1-c1ccccc1F)C(=O)N1CCCc2ccccc21 (stereo unspecified)	> 54.7 µM (inactive)
Cn1c(=O)c(C(=O)CN2CCCc3ccccc32)c(N)n(Cc2ccccc2)c1=O	> 54.7 µM (inactive)
O=C(Nc1cccc(C(F)(F)F)c1)c1csc(-c2ccncc2)n1	5.74 µM
Cc1ccc(-c2nc(C(=O)Nc3cccc(C(F)(F)F)c3)cs2)cc1	> 54.7 µM (inactive)
Cn1c(SCc2nc3ccccc3[nH]2)nnc1-c1cccc(Cl)c1	> 54.7 µM (inactive)
COc1ccc(-c2nc(C(=O)Nc3cccc(C(F)(F)F)c3)cs2)cc1	> 54.7 µM (inactive)

###

Target: Insulin-degrading enzyme (Homo sapiens)
Assay: IDE inhibition in live cells – cell-based, fluorescence polarization, late-stage follow-up (AID 588712)
Conditions: cell-based IDE activity
Activity calls are given as the source filed them. The rule behind the calls is not given here.
Possible outcomes: YES = active, NO = inactive

Structure String	Group Label
O=C(CSc1nnc(-c2cccc(Cl)c2)n1Cc1ccco1)Nc1ccc2c(c1)OCCO2	NO
Cc1c(CCC(=O)NCCCn2ccnc2)c(=O)oc2cc3oc4c(c3cc12)CCCC4	YES
COc1cccc(-c2nnc(SCc3nc4ccccc4[nH]3)n2Cc2ccco2)c1	YES
O=C(CSc1nnc(-c2cccc(Cl)c2)n1Cc1ccco1)Nc1ccccc1C(F)(F)F	NO
CCOc1ccc2[nH]c3c(N4CCN(C(=O)c5ccco5)CC4)ncnc3c2c1	NO
O=c1c2ccccc2sn1-c1cc(S(=O)(=O)N2CCOCC2)ccc1N1CCOCC1	YES
O=C(Nc1cc(C(F)(F)F)cc(C(F)(F)F)c1)c1csc(-c2ccncc2)n1	NO
O=C(CSc1nnc(-c2cccc(Cl)c2)n1Cc1ccco1)Nc1ccc2cn[nH]c2c1	NO
COc1ccc(NC(=O)CSc2nnc(CN3CCOCC3)n2C)cc1Cl	NO
